- EXPERIMENTAL_SYSTEM: SpCas9 (Streptococcus pyogenes serotype M1)
- Sequence (Q99ZW2 whole entry): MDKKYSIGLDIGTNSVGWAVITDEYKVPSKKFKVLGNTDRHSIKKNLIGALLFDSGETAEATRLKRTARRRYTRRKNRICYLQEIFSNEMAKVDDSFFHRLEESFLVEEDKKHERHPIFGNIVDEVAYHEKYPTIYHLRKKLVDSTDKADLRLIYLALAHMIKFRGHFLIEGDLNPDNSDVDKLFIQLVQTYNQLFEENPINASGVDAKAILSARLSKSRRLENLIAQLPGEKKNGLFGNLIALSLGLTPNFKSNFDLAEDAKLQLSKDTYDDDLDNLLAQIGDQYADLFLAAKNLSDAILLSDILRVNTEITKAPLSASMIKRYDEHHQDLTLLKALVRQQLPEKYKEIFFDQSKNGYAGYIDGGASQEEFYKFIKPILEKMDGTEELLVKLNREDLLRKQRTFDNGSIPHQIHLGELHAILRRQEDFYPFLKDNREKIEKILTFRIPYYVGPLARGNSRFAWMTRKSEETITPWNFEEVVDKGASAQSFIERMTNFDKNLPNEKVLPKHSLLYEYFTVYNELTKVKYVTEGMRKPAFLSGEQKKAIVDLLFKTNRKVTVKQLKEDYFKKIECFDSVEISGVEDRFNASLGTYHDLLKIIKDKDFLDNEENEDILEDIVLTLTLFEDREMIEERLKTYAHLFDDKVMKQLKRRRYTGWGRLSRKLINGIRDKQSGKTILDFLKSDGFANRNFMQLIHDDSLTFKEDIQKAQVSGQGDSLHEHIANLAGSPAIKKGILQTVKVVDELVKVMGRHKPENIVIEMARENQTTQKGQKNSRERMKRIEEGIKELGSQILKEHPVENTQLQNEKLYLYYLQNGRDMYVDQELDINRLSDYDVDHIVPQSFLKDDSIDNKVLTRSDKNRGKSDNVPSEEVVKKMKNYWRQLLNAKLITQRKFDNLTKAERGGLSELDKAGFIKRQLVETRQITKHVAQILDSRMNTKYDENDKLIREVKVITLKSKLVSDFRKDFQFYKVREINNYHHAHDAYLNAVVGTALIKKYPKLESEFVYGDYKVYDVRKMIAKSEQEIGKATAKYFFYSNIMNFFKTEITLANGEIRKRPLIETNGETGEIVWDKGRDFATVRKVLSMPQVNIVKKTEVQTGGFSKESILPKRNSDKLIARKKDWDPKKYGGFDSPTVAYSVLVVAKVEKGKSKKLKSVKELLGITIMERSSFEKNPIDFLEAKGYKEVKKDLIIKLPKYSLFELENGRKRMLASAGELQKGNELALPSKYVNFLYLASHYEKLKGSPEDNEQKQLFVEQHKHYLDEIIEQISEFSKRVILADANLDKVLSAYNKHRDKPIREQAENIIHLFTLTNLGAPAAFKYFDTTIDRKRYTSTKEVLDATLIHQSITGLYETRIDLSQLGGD
- PROTOCOL_SUMMARY: Strand displacement assay (SDA) / cumulative activity assay (CAA), SpCas9 primary screen
- Type: biochemical
- CONDITION_NOTES: Primary Screen (150 min); replicate 1
OBSERVED_PROPERTY: Normalized Z score 1
Form: value (number only, do not type unit).

See these solved cases before continuing.
- COMPOUND: "O=C(NC1CCCC1)c1cccc(Oc2cc(-c3ccccc3)ncn2)c1"
  EXPERIMENTAL_SYSTEM: "SpCas9 (Streptococcus pyogenes serotype M1)"
  Normalized Z score 1: 0.22
- COMPOUND: "CCOC(=O)C1=C(C)NN=C(Nc2cccc(C)c2C)S1"
  EXPERIMENTAL_SYSTEM: "SpCas9 (Streptococcus pyogenes serotype M1)"
  Normalized Z score 1: 0.05
- COMPOUND: "O=C(CCS(=O)(=O)c1ccccc1)Nc1nc(-c2ccncc2)cs1"
  EXPERIMENTAL_SYSTEM: "SpCas9 (Streptococcus pyogenes serotype M1)"
  Normalized Z score 1: 0.06

Asked: Please tell me the measured Normalized Z score 1 for O=C([O-])C(O)Cc1ccc(O)c(O)c1.[Na+] (stereo not drawn) ; system: SpCas9 (Streptococcus pyogenes serotype M1).
Given back: 0.22

Asked: Please tell me the measured Normalized Z score 1 for `Cc1ccccc1C(=O)Nc1nc2ccc(S(N)(=O)=O)cc2s1` ; system: SpCas9 (Streptococcus pyogenes serotype M1).
Given back: 0.04

Asked: Please tell me the measured Normalized Z score 1 for Cl.NC(CO)C(=O)NNCc1ccc(O)c(O)c1O (stereo not drawn) ; system: SpCas9 (Streptococcus pyogenes serotype M1).
Given back: 0.21

Asked: Please tell me the measured Normalized Z score 1 for `Cc1nc2ccccc2c(C)c1CC(=O)N1CCN(c2ccc(O)cc2)CC1` ; system: SpCas9 (Streptococcus pyogenes serotype M1).
Given back: 0.09

Asked: Please tell me the measured Normalized Z score 1 for `CNS(=O)(=O)c1ccc2nc(NC(=O)c3ccc(N4C(=O)CCC4=O)cc3)sc2c1` ; system: SpCas9 (Streptococcus pyogenes serotype M1).
Given back: 0.05

Asked: Please tell me the measured Normalized Z score 1 for `CCC(CC)NC(=O)c1ccc2ncsc2c1` ; system: SpCas9 (Streptococcus pyogenes serotype M1).
Given back: 0.12

----------
- EXPERIMENTAL_SYSTEM: SaCas9 (Staphylococcus aureus, UniProt J7RUA5)
- Sequence (J7RUA5 whole entry): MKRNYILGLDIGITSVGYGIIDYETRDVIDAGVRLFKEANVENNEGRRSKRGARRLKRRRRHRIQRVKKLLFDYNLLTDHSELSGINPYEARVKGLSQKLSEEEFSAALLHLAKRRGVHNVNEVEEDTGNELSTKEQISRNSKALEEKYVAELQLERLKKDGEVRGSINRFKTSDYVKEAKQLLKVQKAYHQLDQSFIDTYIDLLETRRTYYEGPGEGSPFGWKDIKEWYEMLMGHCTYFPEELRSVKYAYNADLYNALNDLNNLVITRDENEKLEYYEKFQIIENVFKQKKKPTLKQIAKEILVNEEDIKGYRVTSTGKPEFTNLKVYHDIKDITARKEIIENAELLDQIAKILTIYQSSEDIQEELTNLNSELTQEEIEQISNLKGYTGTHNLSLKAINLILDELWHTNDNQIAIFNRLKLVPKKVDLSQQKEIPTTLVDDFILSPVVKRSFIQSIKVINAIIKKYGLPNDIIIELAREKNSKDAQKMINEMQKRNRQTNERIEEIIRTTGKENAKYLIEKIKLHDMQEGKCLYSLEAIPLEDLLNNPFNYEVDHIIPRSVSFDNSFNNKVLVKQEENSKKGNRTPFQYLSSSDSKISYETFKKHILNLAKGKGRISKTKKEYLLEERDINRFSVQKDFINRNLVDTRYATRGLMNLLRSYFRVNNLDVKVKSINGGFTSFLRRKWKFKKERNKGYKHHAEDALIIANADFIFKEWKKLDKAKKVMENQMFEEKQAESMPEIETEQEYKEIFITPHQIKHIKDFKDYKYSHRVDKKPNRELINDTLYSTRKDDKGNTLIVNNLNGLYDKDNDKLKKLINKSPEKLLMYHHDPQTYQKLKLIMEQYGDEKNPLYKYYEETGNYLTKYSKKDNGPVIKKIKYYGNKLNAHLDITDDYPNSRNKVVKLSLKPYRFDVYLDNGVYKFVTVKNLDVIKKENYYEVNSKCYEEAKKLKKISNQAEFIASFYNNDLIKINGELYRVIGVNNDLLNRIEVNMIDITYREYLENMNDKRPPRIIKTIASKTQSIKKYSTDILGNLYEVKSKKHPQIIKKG
- PROTOCOL_SUMMARY: eGFP secondary assay, SaCas9
- Type: cell-based
- CONDITION_NOTES: replicate 1, Zscore>3 selected as hit
We begin with a simple list: items and their reported Z score Rep1.
Form: value (number only, do not type unit).

- MOLECULE: "Cc1cc(=O)c2cc(C(=O)Nc3ccc(F)cc3)ccc2[nH]1"
  EXPERIMENTAL_SYSTEM: "SaCas9 (Staphylococcus aureus, UniProt J7RUA5)"
  OBSERVED_PROPERTY: "Z score Rep1"
  EXPERIMENTAL_VALUE: 3.774
- MOLECULE: "Cc1nn(-c2ccccc2)c(C)c1CCc1nnc2sc(-c3ccc(N(C)C)cc3)nn12"
  EXPERIMENTAL_SYSTEM: "SaCas9 (Staphylococcus aureus, UniProt J7RUA5)"
  OBSERVED_PROPERTY: "Z score Rep1"
  EXPERIMENTAL_VALUE: 5.040
- MOLECULE: "O=C(NCCCN1CCC(N2CCCCC2)CC1)C1=Cc2sc3c(c2CS1)CCCC3"
  EXPERIMENTAL_SYSTEM: "SaCas9 (Staphylococcus aureus, UniProt J7RUA5)"
  OBSERVED_PROPERTY: "Z score Rep1"
  EXPERIMENTAL_VALUE: 5.564

Asked: Give the reported value of Z score Rep1 for this record: CC1(C(=O)NC2CCCCC2)Cn2c(cc3ccccc32)C(=O)N1Cc1ccccc1 (stereo not shown)
Given back: 5.989

----------
- EXPERIMENTAL_SYSTEM: SpCas9 (Streptococcus pyogenes serotype M1)
- PROTOCOL_SUMMARY: eGFP disruption assay, SpCas9, U2OS.eGFP.PEST cells
- Type: cell-based
- CONDITION_NOTES: replicate 1
- Excerpt: In some embodiments, the secondary assay may be an EGFP disruption assay. In such assay, a quantitative human cell-based reporter assay that enables rapid quantitation of targeted nuclease activities is used to characterize off-target cleavage of Cas9-based RNA guided endonucleases. […] Primary and secondary screening. […] In this assay, any compound that inhibited SpCas9 would rescue the loss of eGFP fluorescence. […]
Using Z score Rep1 as the sorting value, the categories are lowest = under -2, middle = from -2 up to -0.3, highest = -0.3 and over

Worked examples follow.
- COMPOUND: "Fc1ccc(OCc2nn3c(-c4ccccn4)nnc3s2)cc1"
  ASSIGNED_CLASS: "lowest"
- COMPOUND: "O=C(NC1CCCC1)c1cccc(Oc2cc(-c3ccccc3)ncn2)c1"
  ASSIGNED_CLASS: "middle"
- COMPOUND: "Cc1nc2ccccc2n1Cc1nnc2n1N=C(N)CS2"
  ASSIGNED_CLASS: "middle"
- COMPOUND: "Cc1ccccc1C(=O)Nc1nc2ccc(S(N)(=O)=O)cc2s1"
  ASSIGNED_CLASS: "highest"
- COMPOUND: "CS(=O)(=O)Nc1cnc(N2CCC(CCN3CCOCC3)CC2)c(C(=O)O)c1"
  ASSIGNED_CLASS: "lowest"
- COMPOUND: "O=C(NCC1CCCO1)c1sc(=S)n2c1[nH]c(=O)c1cc3c(cc12)OCO3 (stereo not drawn)"
  ASSIGNED_CLASS: "lowest"
- COMPOUND: "Nc1c(C(=O)N2CCCC2)sc(=S)n1Cc1ccccc1"
  ASSIGNED_CLASS: "middle"
- COMPOUND: "Brc1ccc(OCc2nn3c(-c4ccccn4)nnc3s2)cc1"
  ASSIGNED_CLASS: "middle"

Next compound, please.
Asked: // bin(item) where item = `Cc1c(P(=S)(N2CCOCC2)N2CCOCC2)cc(C#N)n1C`
Given back: highest

----------
- EXPERIMENTAL_SYSTEM: SpCas9 (Streptococcus pyogenes serotype M1)
- PROTOCOL_SUMMARY: eGFP disruption assay, SpCas9, U2OS.eGFP.PEST cells
- Type: cell-based
- CONDITION_NOTES: replicate 1, raw readout
OBSERVED_PROPERTY: SpCas9 eGFP disruption Rep1
Form: value (number only, do not type unit).

- COMPOUND: "O=C(NCc1ccc(F)cc1)c1ccc(Oc2ccnc(-c3cccc(F)c3)n2)cc1"
  SpCas9 eGFP disruption Rep1: 75.519
- COMPOUND: "Brc1ccc(OCc2nn3c(-c4ccccn4)nnc3s2)cc1"
  SpCas9 eGFP disruption Rep1: 64.203
- COMPOUND: "CNC(=O)c1sc(=S)n2c1[nH]c(=O)c1cc(Br)ccc12"
  SpCas9 eGFP disruption Rep1: 61.126

Asked: Give the reported value of SpCas9 eGFP disruption Rep1 for this record: `N#Cc1[nH]c(=O)n(Cc2ccccc2)c1N`
Given back: 58.004

Asked: Give the reported value of SpCas9 eGFP disruption Rep1 for this record: `NS(=O)(=O)c1ccc(CCNC(=O)C2=Cc3sc4c(c3CS2)CCCC4)cc1`
Given back: 63.246

Asked: Give the reported value of SpCas9 eGFP disruption Rep1 for this record: `COc1ccc(-c2nnc3sc(-c4cccnc4)nn23)cc1OC`
Given back: 60.269

Asked: Give the reported value of SpCas9 eGFP disruption Rep1 for this record: `CCC(=O)Nc1ccccc1Sc1cc(C)nc2ncnn12`
Given back: 62.276

Asked: Give the reported value of SpCas9 eGFP disruption Rep1 for this record: `COc1ccc(Cc2nnc3sc(-c4ccccc4OC)nn23)cc1`
Given back: 53.496

Asked: Give the reported value of SpCas9 eGFP disruption Rep1 for this record: COc1ccc(-c2cc3c(C)nc(N)nc3n(C3CCC(OCCO)CC3)c2=O)cn1 (stereo not shown)
Given back: 61.679

Asked: Give the reported value of SpCas9 eGFP disruption Rep1 for this record: `CN(C)S(=O)(=O)Nc1ccc(N2CCC(CCN3CCOCC3)CC2)c(C(=O)O)c1`
Given back: 62.393

----------
- EXPERIMENTAL_SYSTEM: SaCas9 (Staphylococcus aureus, UniProt J7RUA5)
- PROTOCOL_SUMMARY: eGFP secondary assay, SaCas9
- Type: cell-based
- CONDITION_NOTES: replicate 2, Zscore>3 selected as hit
OBSERVED_PROPERTY: Z score Rep 2
Form: value (number only, do not type unit).

See these solved cases before continuing.
- COMPOUND: "Cc1nc2nc(N(CCOc3ccccc3)S(=O)(=O)c3ccccc3)nn2c(C)c1Cl [D513-3628]"
  Z score Rep 2: 5.145
- COMPOUND: "Cc1nc(Nc2ccc(N3CCOCC3)cc2)cc(-c2ccccc2)n1 [D278-0547]"
  Z score Rep 2: 3.352
- COMPOUND: "C=CC1=C(C(=O)O)N2C(=O)[C@@H](NC(=O)C(=NOCC(=O)O)c3csc(N)n3)[C@H]2SC1.O [SAM001246816]"
  Z score Rep 2: 2.717

Would you kindly look at the next entry?
Asked: Give the reported value of Z score Rep 2 for this record: Cc1cc(=O)c2cc(C(=O)Nc3ccc(F)cc3)ccc2[nH]1 [D421-0876]
Given back: 3.664

The measured values listed here are drawn from patent US20240115557A1.
